- Target: human ether-à-go-go-related gene (hERG) potassium channel (human)
- Sequence (Q12809 whole entry, looked up): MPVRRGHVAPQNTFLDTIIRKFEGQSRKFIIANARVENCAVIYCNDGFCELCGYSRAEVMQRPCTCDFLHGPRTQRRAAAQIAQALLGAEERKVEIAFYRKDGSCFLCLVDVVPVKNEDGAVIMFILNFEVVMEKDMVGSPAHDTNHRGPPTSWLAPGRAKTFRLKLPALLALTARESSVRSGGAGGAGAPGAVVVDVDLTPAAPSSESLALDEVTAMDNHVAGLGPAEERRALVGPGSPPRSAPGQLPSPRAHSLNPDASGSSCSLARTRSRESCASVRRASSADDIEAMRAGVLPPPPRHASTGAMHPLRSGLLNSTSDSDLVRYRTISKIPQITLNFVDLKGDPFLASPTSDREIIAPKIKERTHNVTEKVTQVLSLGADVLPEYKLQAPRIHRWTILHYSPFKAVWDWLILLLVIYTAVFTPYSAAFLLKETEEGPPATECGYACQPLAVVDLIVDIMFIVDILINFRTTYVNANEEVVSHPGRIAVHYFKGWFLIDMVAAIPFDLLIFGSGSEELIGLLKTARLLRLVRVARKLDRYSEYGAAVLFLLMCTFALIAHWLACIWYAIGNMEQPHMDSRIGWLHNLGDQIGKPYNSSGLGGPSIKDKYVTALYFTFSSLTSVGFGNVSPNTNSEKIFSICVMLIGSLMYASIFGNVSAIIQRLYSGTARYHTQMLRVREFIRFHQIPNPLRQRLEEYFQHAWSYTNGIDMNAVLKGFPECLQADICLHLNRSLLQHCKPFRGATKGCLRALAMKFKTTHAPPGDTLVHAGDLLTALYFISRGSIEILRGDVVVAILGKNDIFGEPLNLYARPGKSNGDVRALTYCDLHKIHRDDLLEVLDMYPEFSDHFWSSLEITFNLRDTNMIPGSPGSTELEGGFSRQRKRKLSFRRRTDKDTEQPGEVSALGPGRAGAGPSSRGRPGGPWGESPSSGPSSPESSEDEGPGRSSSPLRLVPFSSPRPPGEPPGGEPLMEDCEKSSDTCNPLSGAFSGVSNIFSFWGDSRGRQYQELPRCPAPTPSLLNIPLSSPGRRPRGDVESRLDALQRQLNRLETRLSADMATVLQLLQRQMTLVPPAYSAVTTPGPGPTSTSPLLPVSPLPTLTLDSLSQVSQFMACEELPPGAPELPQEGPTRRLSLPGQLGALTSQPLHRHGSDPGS
- Protocol details: primary screen, population patch clamp on CHO cells stably expressing hERG; higher = less effect of the substance
The campaign covered roughly 310,000 compounds. About 2,200 (0.71%) showed an effect of 50% or more. Effects have a minus sign here. For the sample, strong results were picked, then their nearest neighbours and some compounds at random.
Can you tell me hERG current change (%, negative = inhibition) at 1uM for the items I'm about to list?

A selection of reference data follows.
Molecule: CCOC(=O)C1(CCCc2ccccc2)CCN(C2CCC2)CC1
Recorded value: -57.1%
//
Molecule: CCOC(=O)C1(CCCc2ccccc2)CCN(C2CCCC2)CC1
Recorded value: -66.1%
//
Molecule: CCOC(=O)C1(CCCc2ccccc2)CCN(C(=O)CSC)CC1
Recorded value: 3.88%
//
Molecule: CSCC(C)N1CCC(CO)(CCCc2ccccc2)CC1 (stereo not drawn)
Recorded value: -11.2%
//
Molecule: CCOC(=O)C1(CCc2ccccc2)CCN(C2CCSCC2)CC1
Recorded value: -80.7%

Note: attention shifts to another entry.
Q: Bench note: what hERG current change (%, negative = inhibition) at 1uM did CS(=O)(=O)c1ccc(S(=O)(=O)N2CCC(CO)(CCCc3ccccc3)CC2)cc1 show?
Result: 4.47%
